The reported numbers originate from paper PMC9482650.

- target_desc: T1, TX1BP3, O14907
- T1 sequence (O14907 10-122, limits assumed, looked up): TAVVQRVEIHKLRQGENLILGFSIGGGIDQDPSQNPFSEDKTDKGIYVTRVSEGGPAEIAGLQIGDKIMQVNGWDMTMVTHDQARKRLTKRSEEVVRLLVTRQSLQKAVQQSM
- test_description: holdup assay
- Set-up: key: below the threshold = too weak to quantify, mostly under pKd 3.1 to 4
- settings: plain residues with an end cap or a label only (N-terminal biotin on a linker: ado-ado)
measured_quantity: pKd

binder="HDDYFYHDEL [RCN2, Q14257]" result=3.9
binder="PEKVSNTTVV [IGSF5, Q9NSI5]" result="below the threshold"
binder="VISSDDLTEL [CAPN6, Q9Y6Q1]" result="below the threshold"
binder="GVHSNDHSVV [LPAR1, Q92633]" result="below the threshold"
